Kindly state pIC50 for each of the entries shown.
Biological target: PDE2A (NM002599) (Homo sapiens)
Construct: made in house; host or cells: baculovirus / SF21 insect cells
Sequence (O00408 whole entry): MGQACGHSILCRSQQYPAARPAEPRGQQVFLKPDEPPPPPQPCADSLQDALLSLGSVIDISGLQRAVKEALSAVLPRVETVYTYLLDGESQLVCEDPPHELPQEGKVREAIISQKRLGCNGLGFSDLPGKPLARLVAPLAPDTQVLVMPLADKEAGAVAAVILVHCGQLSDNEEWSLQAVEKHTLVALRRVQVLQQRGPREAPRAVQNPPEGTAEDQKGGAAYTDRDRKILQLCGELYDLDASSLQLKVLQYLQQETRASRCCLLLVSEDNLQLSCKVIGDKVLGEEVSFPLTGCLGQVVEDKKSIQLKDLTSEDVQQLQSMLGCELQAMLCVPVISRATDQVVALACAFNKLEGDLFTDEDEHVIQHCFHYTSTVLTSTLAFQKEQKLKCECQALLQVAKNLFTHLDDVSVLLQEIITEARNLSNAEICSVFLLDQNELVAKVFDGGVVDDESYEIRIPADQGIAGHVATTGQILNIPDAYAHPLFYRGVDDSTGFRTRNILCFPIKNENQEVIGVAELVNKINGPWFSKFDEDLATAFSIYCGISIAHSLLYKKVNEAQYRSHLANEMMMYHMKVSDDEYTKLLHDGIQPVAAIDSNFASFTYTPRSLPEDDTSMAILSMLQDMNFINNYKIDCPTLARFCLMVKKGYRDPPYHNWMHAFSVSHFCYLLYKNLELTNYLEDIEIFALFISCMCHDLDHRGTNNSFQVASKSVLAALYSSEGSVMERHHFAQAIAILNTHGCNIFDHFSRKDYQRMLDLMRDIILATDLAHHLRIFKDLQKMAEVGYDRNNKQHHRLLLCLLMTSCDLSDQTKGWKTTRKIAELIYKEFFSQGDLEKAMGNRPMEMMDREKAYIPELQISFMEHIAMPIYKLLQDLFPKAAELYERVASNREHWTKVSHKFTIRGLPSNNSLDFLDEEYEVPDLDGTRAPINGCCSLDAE
Test: Inhibition of recombinant PDE2A (expressed in baculovirus/SF21-cells)
Type: biochemical
Conditions: recombinant PDE2A, 0.5 μM [3H]-cAMP, 1000 nM cGMP, 37° C., 30 minutes, SPA; read-out: PDE2A IC50
pIC50 is a log-scale quantity: -log10 of the concentration expressed in molar.

Retrieve pIC50 measured for "COc1ccc2nnc3c(C)nc(-c4ccc(Cl)cc4Cl)n3c2n1" and print it.
7.82

Retrieve pIC50 measured for "COc1ccc2nnc3c(C)nc(-c4ccncc4OC)n3c2n1" and print it.
6.78

Retrieve pIC50 measured for "COc1ccc2nnc3c(C)nc(-c4cc(Cl)ccc4OC)n3c2n1" and print it.
7.20

Retrieve pIC50 measured for "COc1ccc2nnc3c(C)nc(-c4cc(Cl)ccc4Cl)n3c2n1" and print it.
8.63

Retrieve pIC50 measured for "COc1cc(F)cc(-c2nc(C)c3nnc4ccc(OC)nc4n23)c1" and print it.
7.42

Retrieve pIC50 measured for "COc1ccc2nnc3cnc(C(C)C)n3c2n1" and print it.
5.53

Retrieve pIC50 measured for "COc1ccc2nnc3c(C)nc(-c4cncc(C)c4)n3c2n1" and print it.
7.84

Retrieve pIC50 measured for "COc1ccc2nnc3c(C)nc(-c4cnccc4C)n3c2n1" and print it.
6.85

Retrieve pIC50 measured for "CCOc1ccc(Cl)c(-c2nc(C)c3nnc4ccc(OC)nc4n23)c1" and print it.
8.00

Retrieve pIC50 measured for "COc1ccc2nnc3c(C)nc(-c4cncnc4)n3c2n1" and print it.
5.39

Retrieve pIC50 measured for "COc1ccc2nnc3c(C)nc(-c4ccc(C)cc4Cl)n3c2n1" and print it.
8.12

Retrieve pIC50 measured for "Cc1nc(-c2cc(Cl)ccc2Cl)n2c1nnc1ccc(N3CCCC3)nc12" and print it.
8.49

Retrieve pIC50 measured for "COc1ccc2nnc3c(C)nc(-c4cccc(Cl)c4)n3c2n1" and print it.
7.34

Retrieve pIC50 measured for "COc1ccc2nnc3c(C)nc(-c4cc(Cl)cc(Cl)c4Cl)n3c2n1" and print it.
7.46

Retrieve pIC50 measured for "COc1ccc2nnc3c(C)nc(-c4ccc(F)cc4Cl)n3c2n1" and print it.
7.93

Retrieve pIC50 measured for "COc1cc(-c2nc(C)c3nnc4ccc(OC)nc4n23)c(Cl)cn1" and print it.
7.15

Retrieve pIC50 measured for "COc1ccc2nnc3c(C)nc(-c4ccccc4C)n3c2n1" and print it.
7.80

Retrieve pIC50 measured for "COc1ccc2nnc3c(C)nc(-c4ccc(F)nc4C)n3c2n1" and print it.
7.31

Retrieve pIC50 measured for "COc1ccc2nnc3c(C4CC4)nc(-c4cccc(Cl)c4)n3c2n1" and print it.
6.87

Retrieve pIC50 measured for "COc1ccc2nnc3c(C)nc(-c4ccc(C)cc4F)n3c2n1" and print it.
7.32

Retrieve pIC50 measured for "COc1ccc2nnc3c(C)nc(-c4cccc(OCC(F)(F)F)c4)n3c2n1" and print it.
7.81

Retrieve pIC50 measured for "COc1ccc2nnc3c(C)nc(-c4cnccc4OC)n3c2n1" and print it.
7.16

Retrieve pIC50 measured for "COc1ccc2nnc3c(C)nc(-c4ccccc4C(N)=O)n3c2n1" and print it.
6.09

Retrieve pIC50 measured for "COc1ccc2nnc3c(C)nc(-c4cc(C(C)C)ccc4OC)n3c2n1" and print it.
6.56

Retrieve pIC50 measured for "COc1ccc2nnc3c(C)nc(-c4ccoc4)n3c2n1" and print it.
5.86
